target: sodium ion channel (Nav1.7) (Homo sapiens); test: Blocking effect against sodium ion channel (Nav1.7), IonFlux16 auto patch clamp, hNav1.7 HEK293 cells; settings: peak current after 50 seconds treatment, eight concentrations
pIC50: −log10 of the molar value.
quantity.name: pIC50

Below, 6 molecules whose answers are already recorded.
[
  {
    "molecule": "N#Cc1cc(S(=O)(=O)Nc2nccs2)ccc1Oc1ccc(-c2ccnc(F)c2)nc1-c1ccoc1 [Example 112]",
    "recorded.measurement": "7.00 to 7.29"
  },
  {
    "molecule": "O=S(=O)(Nc1cscn1)c1cc(Cl)c(Oc2cnc(-c3cc(Cl)ccc3F)cc2-c2cccnc2)cc1F [Example 81]",
    "recorded.measurement": "< 7.00"
  },
  {
    "molecule": "O=S(=O)(Nc1cscn1)c1cc(Cl)c(Oc2cnc(-c3ccc(F)c(F)c3)cc2-c2ccnc(F)c2)cc1F [Example 80]",
    "recorded.measurement": "< 7.00"
  },
  {
    "molecule": "O=S(=O)(Nc1cscn1)c1cc(Cl)c(Oc2cnc(-c3cccc(F)c3)cc2-c2cn(-c3cccnc3)cn2)cc1F [Example 100]",
    "recorded.measurement": "< 7.00"
  },
  {
    "molecule": "N#Cc1cc(S(=O)(=O)Nc2nccs2)ccc1Oc1cnc(-c2cccnc2)cc1-c1ccoc1 [Example 13]",
    "recorded.measurement": "< 7.00"
  },
  {
    "molecule": "N#Cc1cc(S(=O)(=O)Nc2cscn2)ccc1Oc1cnc(-c2ccc(F)cc2)cc1-c1cn[nH]c1 [Example 90]",
    "recorded.measurement": "< 7.00"
  }
]

# ---- query molecule ----
Record request: pIC50 value, item Cn1nccc1-c1cc(Cl)ccc1C(O)c1ccc(S(=O)(=O)Nc2nccs2)cc1F (stereo not shown) [Example 144]
< 7.00

====

target: sodium ion channel (Nav1.7) (Homo sapiens, UniProt Q15858); assay: Blocking effect against sodium ion channel (Nav1.7), IonFlux16 auto patch clamp, hNav1.7 HEK293 cells; details: peak current after 50 seconds treatment, eight concentrations
Sequence (Q15858 whole entry): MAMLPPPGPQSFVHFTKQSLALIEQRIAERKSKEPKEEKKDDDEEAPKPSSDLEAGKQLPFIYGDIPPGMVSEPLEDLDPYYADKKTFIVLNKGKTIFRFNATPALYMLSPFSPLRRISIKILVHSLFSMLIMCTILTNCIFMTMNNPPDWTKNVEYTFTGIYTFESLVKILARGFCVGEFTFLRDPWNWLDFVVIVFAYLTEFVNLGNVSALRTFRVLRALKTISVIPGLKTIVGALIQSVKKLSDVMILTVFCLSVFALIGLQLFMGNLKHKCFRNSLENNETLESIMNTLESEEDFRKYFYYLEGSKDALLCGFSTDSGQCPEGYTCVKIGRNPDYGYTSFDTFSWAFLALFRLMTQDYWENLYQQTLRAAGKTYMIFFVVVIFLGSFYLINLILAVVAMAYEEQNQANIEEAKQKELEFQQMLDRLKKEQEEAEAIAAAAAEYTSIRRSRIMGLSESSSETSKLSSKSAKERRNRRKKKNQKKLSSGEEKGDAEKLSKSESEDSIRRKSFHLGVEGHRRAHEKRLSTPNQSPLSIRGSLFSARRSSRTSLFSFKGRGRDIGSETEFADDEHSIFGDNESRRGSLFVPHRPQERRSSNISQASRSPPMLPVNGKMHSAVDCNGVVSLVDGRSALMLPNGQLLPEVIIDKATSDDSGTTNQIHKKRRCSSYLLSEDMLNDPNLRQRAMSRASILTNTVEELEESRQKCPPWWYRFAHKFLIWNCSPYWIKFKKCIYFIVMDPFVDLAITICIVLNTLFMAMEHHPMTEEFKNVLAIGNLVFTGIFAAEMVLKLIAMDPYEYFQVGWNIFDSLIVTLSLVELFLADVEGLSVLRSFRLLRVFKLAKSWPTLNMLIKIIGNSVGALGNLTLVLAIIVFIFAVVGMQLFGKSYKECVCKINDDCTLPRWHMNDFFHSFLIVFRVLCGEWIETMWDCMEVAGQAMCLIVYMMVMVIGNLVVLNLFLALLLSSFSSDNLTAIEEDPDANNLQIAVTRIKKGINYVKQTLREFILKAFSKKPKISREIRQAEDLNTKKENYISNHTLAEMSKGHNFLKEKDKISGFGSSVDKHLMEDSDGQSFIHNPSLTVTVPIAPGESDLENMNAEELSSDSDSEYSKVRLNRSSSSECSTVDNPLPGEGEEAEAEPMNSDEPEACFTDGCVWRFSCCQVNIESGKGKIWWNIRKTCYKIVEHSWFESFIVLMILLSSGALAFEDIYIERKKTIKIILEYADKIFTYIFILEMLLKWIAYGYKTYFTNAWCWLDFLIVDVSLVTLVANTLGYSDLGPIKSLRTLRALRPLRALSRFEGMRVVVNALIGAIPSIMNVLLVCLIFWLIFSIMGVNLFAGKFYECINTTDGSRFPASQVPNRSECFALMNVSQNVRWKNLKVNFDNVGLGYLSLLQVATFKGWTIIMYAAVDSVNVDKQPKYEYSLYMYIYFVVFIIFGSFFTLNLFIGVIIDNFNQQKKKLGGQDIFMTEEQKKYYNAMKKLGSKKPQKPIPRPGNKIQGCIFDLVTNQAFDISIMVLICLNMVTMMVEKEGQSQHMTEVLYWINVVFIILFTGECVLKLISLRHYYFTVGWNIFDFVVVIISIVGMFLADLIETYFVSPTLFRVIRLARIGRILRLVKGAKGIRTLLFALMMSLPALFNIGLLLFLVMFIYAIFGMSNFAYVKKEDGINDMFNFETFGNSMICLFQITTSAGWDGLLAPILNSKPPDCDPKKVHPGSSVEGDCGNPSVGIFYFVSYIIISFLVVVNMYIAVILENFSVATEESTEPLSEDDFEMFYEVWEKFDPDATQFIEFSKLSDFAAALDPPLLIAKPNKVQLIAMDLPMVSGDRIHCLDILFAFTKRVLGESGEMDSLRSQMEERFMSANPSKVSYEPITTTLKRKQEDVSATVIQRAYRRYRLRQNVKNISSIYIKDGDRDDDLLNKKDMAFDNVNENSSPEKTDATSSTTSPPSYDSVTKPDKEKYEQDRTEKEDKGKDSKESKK
pIC50: −log10 of the molar value.
quantity.name: pIC50

[
  {
    "compound": "N#Cc1cc(S(=O)(=O)Nc2nccs2)ccc1Oc1cnc(-c2ccoc2)cc1-c1ccoc1",
    "quantity.name": "pIC50",
    "recorded.measurement": "> 7.30"
  },
  {
    "compound": "O=S(=O)(Nc1nccs1)c1ccc(C(O)c2cccnc2-c2ccoc2)cc1 (centres unmarked)",
    "quantity.name": "pIC50",
    "recorded.measurement": "< 7.00"
  },
  {
    "compound": "N#Cc1cc(S(=O)(=O)Nc2nccs2)ccc1Oc1cnc(-c2ccccc2)cc1-c1ccnc(F)c1",
    "quantity.name": "pIC50",
    "recorded.measurement": "7.00 to 7.29"
  }
]

Provide the documented pIC50 with sodium ion channel (Nav1.7) (Homo sapiens, UniProt Q15858) as the system for O=S(=O)(Nc1nccs1)c1ccc(C(O)c2ccc(Cl)cc2-c2ccncc2)c(F)c1 (centres unmarked)
< 7.00

Provide the documented pIC50 with sodium ion channel (Nav1.7) (Homo sapiens, UniProt Q15858) as the system for O=S(=O)(Nc1cscn1)c1cc(Cl)c(Oc2cnc(-c3cccc(F)c3)cc2-c2ccnc(N3CCOCC3)c2)cc1F
7.00 to 7.29

Provide the documented pIC50 with sodium ion channel (Nav1.7) (Homo sapiens, UniProt Q15858) as the system for Cn1nccc1-c1cc(-c2ccccc2)ncc1Oc1ccc(S(=O)(=O)Nc2ncns2)cc1C#N
7.00 to 7.29

Provide the documented pIC50 with sodium ion channel (Nav1.7) (Homo sapiens, UniProt Q15858) as the system for O=S(=O)(Nc1nccs1)c1ccc(Oc2cnc(-c3ccc(F)nc3)cc2-c2ccoc2)c(F)c1
< 7.00

Provide the documented pIC50 with sodium ion channel (Nav1.7) (Homo sapiens, UniProt Q15858) as the system for O=S(=O)(Nc1nccs1)c1ccc(C(O)c2ccc(-c3ccoc3)cc2-c2ccoc2)c(F)c1 (centres unmarked)
< 7.00

Source: patent US9376429B2
